# System: HeLa Kyoto;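 also: HeLa Kyoto cells arrested at G1/S by double thymidine block, proteins quantified by TMT10plex mass spectrometry in mild NP-40 versus SDS extracts, three biological replicates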
# ASSAY METHOD TEXT: solubility in G1/S (NP-40 vs SDS abundance) (log2 ratio); higher = more soluble
# CONDITIONS USED: cell cycle stage: G1/S
solubility in G1/S (log2): recorded values
Reply briefly: the number, and no unit.

MONOMER SEQUENCE	QUANTITATIVE RESULT
MMATPNQTACNAESPVALEEAKTSGAPGSPQTPPERHDSGGSLPLTPRMESHSEDEDLAGAVGGLGWNSRSPRTQSPGGCSAEAVLARKKHRRRPSKRKRHWRPYLELSWAEKQQRDERQSQRASRVREEMFAKGQPVAPYNTTQFLMNDRDPEEPNLDVPHGISHPGSSGESEAGDSDGRGRAHGEFQRKDFSETYERFHTESLQGRSKQELVRDYLELEKRLSQAEEETRRLQQLQACTGQQSCRQVEELAAEVQRLRTENQRLRQENQMWNREGCRCDEEPGT [HEXIM2]	0.492

input: Which solubility in G1/S (log2) is listed for MSTGPTAATGSNRRLQQTQNQVDEVVDIMRVNVDKVLERDQKLSELDDRADALQAGASQFETSAAKLKRKYWWKNCKMWAIGITVLVIFIIIIIVWVVSS [VAMP3] ?
output: 0.0764

input: Which solubility in G1/S (log2) is listed for MSDEEARQSGGSSQAGVVTVSDVQELMRRKEEIEAQIKANYDVLESQKGIGMNEPLVDCEGYPRSDVDLYQVRTARHNIICLQNDHKAVMKQVEEALHQLHARDKEKQARDMAEAHKEAMSRKLGQSESQGPPRAFAKVNSISPGSPASIAGLQVDDEIVEFGSVNTQNFQSLHNIGSVVQHSEGKPLNVTVIRRGEKHQLRLVPTRWAGKGLLGCNIIPLQR [PSMD9] ?
output: 0.431
